Reference source: the NIST ThermoML archive (doi:10.1016/j.fluid.2010.01.002)

Form field: refractive index (one value per entry).
- Method notes: refractive index (Na D-line) (dimensionless)
- Measurement conditions: 308.15 K; 101.33 kPa; Liquid; Standard Abbe refractometry
Reply with just the number.

// refractive index lookup, key: COS(=O)(=O)[O-].Cn1cc[n+](C)c1 [1,3-dimethylimidazolium methylsulfate] 1.4782

// refractive index lookup, key: C[S+](C)[O-] [dimethyl sulfoxide] 1.4701

// refractive index lookup, key: CC#N 1.3365

// refractive index lookup, key: CO 1.3232

// refractive index lookup, key: O 1.3313

// refractive index lookup, key: CN(C)C=O [dimethylformamide] 1.4225

###

Form field: viscosity (one value per entry).
- Measurement conditions: 308.15 K; 101.33 kPa; Liquid; Capillary tube (Ostwald / Ubbelohde) method
Write the value in mPa·s as a bare number.

Examples with answers:
molecule="COS(=O)(=O)[O-].Cn1cc[n+](C)c1 [1,3-dimethylimidazolium methylsulfate]" experimental_value=54.42
molecule="CC#N [acetonitrile]" experimental_value=0.3171
molecule="CN(C)C=O [dimethylformamide]" experimental_value=0.7712
molecule="O [water]" experimental_value=0.7207

// next item, viscosity requested
// viscosity lookup, key: C[S+](C)[O-] [dimethyl sulfoxide] 1.622
